Readings of relative integration efficiency (log2) for the listed sequences
system: VchCAST RNA-guided transposition machinery (E. coli BL21(DE3) host, lacZ target); assay: relative integration efficiency (T-RL orientation) vs wild-type transposon end (log2 (normalized fold change)); transposon end mutated: right end (5 bp flank + 75 bp right end); higher = more efficient transposition

ENTRY_SEQUENCE	relative integration efficiency (log2)
ACATTTGTTGATACAACCATAAAATGATAATTACAACCATAAGTTGATATTTTTCAGTGGGTATTTAACTATAACGCTCTGATCATAGTCAGACCAACATTGCTACGACCCGTATTCGCACCGACAC	-0.515
ACATTTGTTGATAAAACCATAAAATGATTTTAAGAAACCATAATCTGAAATAATCACACCCATAAATTGATATTGCCTCTGATCATAGTCAGACCAACATTGCTACGACCCGTATTCGCACCGACAC	-3.13
ACATTTGTTGATACAACCATAAAATGATAAATACACCCATAAATTGATAAATATCACACCCATAAATTGATATAGCCTCTGATCATAGTCAGACCAACATTGCTACGACCCGTATTCGCACCGACAC	-0.443
